x-fold Koff improvement values for the binders below.
target_entity: human NKp30 (human) (UniProt O14931)
Sequence (O14931 19-135 limits assumed): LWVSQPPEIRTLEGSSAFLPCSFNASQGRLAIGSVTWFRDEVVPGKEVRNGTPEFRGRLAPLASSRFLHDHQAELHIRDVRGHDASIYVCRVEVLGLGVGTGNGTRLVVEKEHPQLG
experiment_description: BLI, ratio to ΔB7-H6_wt
Give just the number in fold; leave the unit off.

Worked cases, answers included:
binder	result_unit	obs_value
ΔB7-H6_S3#6-SEED-PGLALA (bispecific antibody, part only; not given: SEED Fc chains and hu225 Fab, part only) chain, part: DLKVEMMAGGTQITPLNDNVTIFCNIFYSQPLNITHMGITWFWKSLTFDKEVKVFEFWGDHQEAFRPGAIVSPWRLKSGDASLRLPGIQLEEAGEYRCEVVVTPYKAQGTVQLEVVASPAS	fold	6.9
ΔB7-H6_S3#11-SEED-PGLALA (bispecific antibody, part only; not given: SEED Fc chains and hu225 Fab, part only) chain, part: DLKVEMMAGGTQITPLNDNVTIFCNIFYSQPLNITLMGITWFWKSLTFDKEVKVFEFWGDHQEAFRPGAIVSPWRLKSGDASLRLPGIQLEEAGEYRCEVIVTPFKAQGTVQLEVVASPAS	fold	3.9
ΔB7-H6_S3#12-SEED-PGLALA (bispecific antibody, part only; not given: SEED Fc chains and hu225 Fab, part only) chain, part: DLKVEMMAGGTQITPLNDNVTIFCNIFYSQPLNITEMGITWFWKSLTFDKEVKVFEFFGDHQEAFRPGAIVSPWRLKSGDASLRLPGIQLEEAGEYRCEVVVTPYKAQGTVQLEVVASPAS	fold	1.9

Pending binder:
Data request: Quick one: x-fold Koff improvement for ΔB7-H6_S3#24-SEED-PGLALA (bispecific antibody, part only; not given: SEED Fc chains and hu225 Fab, part only) chain, part: DLKVEMMAGGTQITPLNDNVTIFCNIFYSQPLNITIMGITWFWKSLTFDKEVKVFEFYGDHQEAFRPGAIVSPWRLKSGDASLRLPGIQLEEAGEYRCEVVVTPYKAQGTVQLEVVASPAS ?
Data returned: 16.1
